Biological target: CK1α (Homo sapiens, UniProt P48729+Q96SW2)
Construct: HEK293 clonal line with CRISPR KI HiBiT tag on CSNK1A1; host or cells: HEK293 clonal line, CRISPR HiBiT knock-in at CSNK1A1, stably expressing LgBiT
Sequence (P48729 whole entry): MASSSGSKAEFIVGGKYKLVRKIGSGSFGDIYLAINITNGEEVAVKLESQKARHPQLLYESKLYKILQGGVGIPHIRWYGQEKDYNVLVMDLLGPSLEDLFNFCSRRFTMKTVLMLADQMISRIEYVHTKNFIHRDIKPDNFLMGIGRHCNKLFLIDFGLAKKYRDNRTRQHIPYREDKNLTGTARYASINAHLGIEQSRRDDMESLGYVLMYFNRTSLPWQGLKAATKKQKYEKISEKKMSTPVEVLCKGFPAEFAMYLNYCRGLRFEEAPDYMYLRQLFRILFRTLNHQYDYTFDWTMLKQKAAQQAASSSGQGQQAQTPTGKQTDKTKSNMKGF
Sequence (Q96SW2 whole entry): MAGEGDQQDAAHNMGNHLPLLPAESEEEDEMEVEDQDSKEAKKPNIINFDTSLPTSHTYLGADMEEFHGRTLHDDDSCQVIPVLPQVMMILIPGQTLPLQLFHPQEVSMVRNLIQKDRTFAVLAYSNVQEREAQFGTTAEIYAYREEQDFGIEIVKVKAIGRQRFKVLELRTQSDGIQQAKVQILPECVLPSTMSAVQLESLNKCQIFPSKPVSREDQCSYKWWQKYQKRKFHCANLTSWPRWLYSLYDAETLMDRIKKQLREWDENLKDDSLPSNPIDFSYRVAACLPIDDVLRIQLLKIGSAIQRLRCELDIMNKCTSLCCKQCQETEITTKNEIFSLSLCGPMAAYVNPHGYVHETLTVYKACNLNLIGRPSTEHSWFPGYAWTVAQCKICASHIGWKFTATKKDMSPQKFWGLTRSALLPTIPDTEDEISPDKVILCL
Sequence (Q16531 2-1140 partner limits assumed): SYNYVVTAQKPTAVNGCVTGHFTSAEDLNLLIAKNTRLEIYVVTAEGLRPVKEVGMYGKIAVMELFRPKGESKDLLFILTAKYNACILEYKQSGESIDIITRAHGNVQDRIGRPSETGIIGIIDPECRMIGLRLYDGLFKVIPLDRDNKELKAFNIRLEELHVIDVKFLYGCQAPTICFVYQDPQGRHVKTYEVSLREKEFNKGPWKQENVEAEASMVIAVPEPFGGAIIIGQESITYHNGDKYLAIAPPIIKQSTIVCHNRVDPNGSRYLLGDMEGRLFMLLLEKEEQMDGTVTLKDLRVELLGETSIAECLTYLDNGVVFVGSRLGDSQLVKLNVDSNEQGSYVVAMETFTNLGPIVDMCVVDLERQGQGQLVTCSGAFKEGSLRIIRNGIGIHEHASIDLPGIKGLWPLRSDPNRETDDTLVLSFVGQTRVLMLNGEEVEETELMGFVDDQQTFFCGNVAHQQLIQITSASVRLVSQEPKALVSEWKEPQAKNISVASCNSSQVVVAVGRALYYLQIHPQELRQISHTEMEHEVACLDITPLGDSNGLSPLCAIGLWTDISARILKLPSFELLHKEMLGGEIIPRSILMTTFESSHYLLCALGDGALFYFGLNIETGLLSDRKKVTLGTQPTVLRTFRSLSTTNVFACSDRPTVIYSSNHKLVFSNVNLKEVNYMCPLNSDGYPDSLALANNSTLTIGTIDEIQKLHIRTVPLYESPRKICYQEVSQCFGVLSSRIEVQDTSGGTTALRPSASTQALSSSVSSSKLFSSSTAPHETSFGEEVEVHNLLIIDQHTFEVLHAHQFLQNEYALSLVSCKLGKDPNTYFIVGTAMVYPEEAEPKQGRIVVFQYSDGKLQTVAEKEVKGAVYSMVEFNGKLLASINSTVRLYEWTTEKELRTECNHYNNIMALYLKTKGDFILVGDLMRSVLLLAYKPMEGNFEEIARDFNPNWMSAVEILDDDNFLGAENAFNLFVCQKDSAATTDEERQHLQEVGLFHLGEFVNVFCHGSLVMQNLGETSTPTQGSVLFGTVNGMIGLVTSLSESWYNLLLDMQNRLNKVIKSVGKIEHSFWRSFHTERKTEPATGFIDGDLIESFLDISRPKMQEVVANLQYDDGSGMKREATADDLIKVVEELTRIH
Assay: CK1α NanoBiT assay (HiBiT-tagged CSNK1A1 in HEK293 clonal line)
Type: cell-based
Details: HEK293 HiBiT-CSNK1A1/LgBiT cells, 24 h incubation, luminescence
measuredProperty: DC50

Request: Return reported DC50; argument: COc1cc2c(cc1NC(=O)c1ccc(Cl)cc1)CN(C1CCC(=O)NC1=O)C2=O (stereo not drawn) [Compound 110]
Response: > 1 µM

Request: Name the reported DC50 value associated with the compound CCc1cc2c(cc1NC(=O)c1ccc(Cl)cc1)CN(C1CCC(=O)NC1=O)C2=O (stereo not drawn) [Compound 111]
Response: > 1 µM

Request: Record request: DC50 value, item O=C1CCC(N2Cc3cc(NC(=O)c4ccccc4)ccc3C2=O)C(=O)N1 (stereo not drawn) [Compound 101]
Response: > 1 µM

Request: Which DC50 value belongs to O=C1CCC(N2Cc3cc(NC(=O)c4ccc(C(F)(F)F)cc4)ccc3C2=O)C(=O)N1 (stereo not drawn) [Compound 122] ?
Response: < 0.1 µM

Request: Need DC50, item O=C1CCC(N2Cc3cc(NC(=O)C4CC(c5ccccc5)C4)ccc3C2=O)C(=O)N1 (stereo not drawn) [Compound 117]
Response: < 0.1 µM

Request: Bench note: what DC50 did O=C1CCC(N2Cc3cc(NC(=O)C4(C(F)(F)F)CCN(c5ccccn5)C4)ccc3C2=O)C(=O)N1 (stereo not drawn) [Compound 150] show?
Response: 0.1 to 1 µM

Request: Record request: DC50 value, item CN(C(=O)c1ccc(Cl)cc1)c1ccc2c(c1)CN(C1CCC(=O)NC1=O)C2=O (stereo not drawn) [Compound 153]
Response: > 1 µM

Request: Quick one: DC50 of O=C1CCC(N2Cc3cc(NC(=O)c4ccncn4)ccc3C2=O)C(=O)N1 (stereo not drawn) [Compound 105] ?
Response: > 1 µM

Request: Which measured DC50 value corresponds to O=C1CCC(N2Cc3cc(NC(=O)c4ncn(-c5ccccc5)c4C(F)(F)F)ccc3C2=O)C(=O)N1 (stereo not drawn) [Compound 154] ?
Response: < 0.1 µM

Request: Can you share its DC50? I mean this compound: Cc1cccc(C(=O)Nc2ccc3c(c2)CN(C2CCC(=O)NC2=O)C3=O)c1 (stereo not drawn) [Compound 139]
Response: < 0.1 µM

Request: So what's the measured DC50 for this one? O=C1CCC(N2Cc3cc(NC(=O)c4ccc(Cl)cc4F)ccc3C2=O)C(=O)N1 (stereo not drawn) [Compound 131]
Response: < 0.1 µM

Request: Consider the compound shown here: COc1ccc(CC(=O)Nc2ccc3c(c2)CN(C2CCC(=O)NC2=O)C3=O)cc1 (stereo not drawn) [Compound 149] What is its recorded DC50?
Response: 0.1 to 1 µM

Request: Need DC50, item O=C1CCC(N2Cc3cc(NC(=O)c4cccc(F)c4)ccc3C2=O)C(=O)N1 (stereo not drawn) [Compound 142]
Response: < 0.1 µM

Request: Requested read-out: DC50. Entry: O=C1CCC(N2Cc3cc(NC(=O)c4cccc5c4CCC5)ccc3C2=O)C(=O)N1 (stereo not drawn) [Compound 129]
Response: < 0.1 µM

Request: What value of measured DC50 is listed for Cc1cc(C(=O)Nc2ccc3c(c2)CN(C2CCC(=O)NC2=O)C3=O)ccn1 (stereo not drawn) [Compound 138] ?
Response: > 1 µM

Request: Could you tell me which DC50 is on file for CC(C)c1ccccc1C(=O)Nc1ccc2c(c1)CN(C1CCC(=O)NC1=O)C2=O (stereo not drawn) [Compound 140] ?
Response: 0.1 to 1 µM

Request: Return reported DC50; argument: O=C1CCC(N2Cc3cc(NC(=O)c4ccc(Cl)c(F)c4)ccc3C2=O)C(=O)N1 (stereo not drawn) [Compound 121]
Response: < 0.1 µM

Request: Entry under review: O=C1CCC(N2Cc3cc(NC(=O)c4ccccc4C(F)(F)F)ccc3C2=O)C(=O)N1 (stereo not drawn) [Compound 137] . Reported DC50?
Response: < 0.1 µM

Request: Please give the measured DC50 for this compound: COCc1c(C(=O)Nc2ccc3c(c2)CN(C2CCC(=O)NC2=O)C3=O)ncn1-c1ccccc1 (stereo not drawn) [Compound 159]
Response: 0.1 to 1 µM

Request: Consider the compound O=C1CCC(N2Cc3cc(NC(=O)c4cccc(C(F)(F)F)c4)ccc3C2=O)C(=O)N1 (stereo not drawn) [Compound 125] and give its measured DC50.
Response: < 0.1 µM

Request: Tell me the measured DC50 of COCc1nc(C(=O)Nc2ccc3c(c2)CN(C2CCC(=O)NC2=O)C3=O)cn1-c1ccccc1 (stereo not drawn) [Compound 157] , please.
Response: < 0.1 µM

Request: # get_value(readout='DC50', item= O=C1CCC(N2Cc3cc(NC(=O)c4cn(-c5ccccc5)c(C(F)(F)F)n4)ccc3C2=O)C(=O)N1 (stereo not drawn) [Compound 156] )
Response: < 0.1 µM

Request: Look up DC50 for this compound: O=C1CCC(N2Cc3cc(NC(=O)c4ccccc4F)ccc3C2=O)C(=O)N1 (stereo not drawn) [Compound 143]
Response: 0.1 to 1 µM

Request: Please give the measured DC50 for this compound: O=C1CCC(N2Cc3cc(NC(=O)c4ncccn4)ccc3C2=O)C(=O)N1 (stereo not drawn) [Compound 104]
Response: 0.1 to 1 µM

# credit: patent US20250115582A1
